Data origin: patent US9447086B2

What CC50 at 5 days was measured for each of the following?
# Procedure text: Cytotoxicity (CC50) in HepDE19 cells, CCK-8 cell viability
# Type: cell-based
# Run parameters: human, HepDE19 cells; read-out: CC50
Quick reminder: number only, in µM, skip the unit.

Inquiry: Please list CC50 at 5 days recorded for the compound CCOC(=O)C1=C(CN2CC(F)(F)C[C@H]2C(=O)O)NC(c2nccs2)=N[C@H]1c1ccc(F)c(F)c1
Reply text: 40

Inquiry: Please list CC50 at 5 days recorded for the compound CCOC(=O)C1=C(CN2CC(F)(F)C[C@H]2C(=O)O)NC(c2nccs2)=N[C@H]1c1ccc(F)cc1F
Reply text: 52

Inquiry: Please list CC50 at 5 days recorded for the compound COC(=O)C1=C(CN2CCOC[C@H]2C(=O)O)NC(c2nccs2)=N[C@H]1c1ccc(Br)cc1F
Reply text: 92

Inquiry: Please list CC50 at 5 days recorded for the compound CCOC(=O)C1=C(CN2CCOC[C@H]2C(=O)O)NC(c2nccs2)=N[C@H]1c1ccc(Br)c(F)c1
Reply text: 14

====

# Procedure text: Metabolic stability study in human microsome
# Format: in vitro ADME
Property label: Human Hepatic Clearance (mL/min/kg)
Quick reminder: number only, in mL/min/kg, skip the unit.

Inquiry: Please list Human Hepatic Clearance recorded for the compound COC(=O)C1=C(CN2CCOC[C@H]2C(=O)O)NC(c2ncoc2C)=N[C@H]1c1ccc(F)cc1Br [Example 65]
Reply text: 1.67

Inquiry: Please list Human Hepatic Clearance recorded for the compound [2H][C@@]1(c2ccc(F)cc2Cl)N=C(c2nccs2)NC(CN2CC(F)(F)C[C@H]2C(=O)O)=C1C(=O)OC [Example 3]
Reply text: 9.21

Inquiry: Please list Human Hepatic Clearance recorded for the compound CC(C)OC(=O)C1=C(CN2CCOC[C@H]2C(=O)O)NC(c2nccs2)=N[C@H]1c1ccc(F)cc1Cl [Example 98]
Reply text: 0

Inquiry: Please list Human Hepatic Clearance recorded for the compound CCOC(=O)C1=C(CN2CC(F)(F)C[C@H]2C(=O)O)NC(c2nccs2)=N[C@H]1c1ccc(Br)cc1 [Example 130]
Reply text: 3.92

Inquiry: Please list Human Hepatic Clearance recorded for the compound COC(=O)C1=C(CN2CSCCC2C(=O)O)NC(c2nccs2)=N[C@H]1c1ccc(F)cc1Cl (stereo partly shown) [Example 86]
Reply text: 6.8

Inquiry: Please list Human Hepatic Clearance recorded for the compound COC(=O)C1=C(CN2CCO[C@H](C)[C@H]2C(=O)O)NC(c2nccs2)=N[C@H]1c1ccc(F)cc1Br [Example 106]
Reply text: 6.32

Inquiry: Please list Human Hepatic Clearance recorded for the compound CCOC(=O)C1=C(CN2CC(F)(F)C[C@H]2C(=O)O)NC(c2nccs2)=N[C@H]1c1ccc(C#N)cc1 [Example 48]
Reply text: 3.12

====

# Test system: HepDE19 cells
# Procedure text: Cytotoxicity (CC50) in HepDE19 cells, CCK-8 cell viability
# Assay type: cell-based
# Procedure: HepG2.2.15 and HepDE19 are stably-transfected cell lines containing the HBV genome. […] Five days after treatment, cell viability was measured by addition of 20 μL of CCK-8 reagent. Two hours after incubation at 37° C., the absorbance at wavelengths of 450 nm and 630 nm (OD450 and OD630) was recorded by a plate reader.
What CC50 was measured for each of the following?

Inquiry: Please list CC50 recorded for the compound CCOC(=O)C1=C(CN2CCOC[C@H]2C(=O)O)NC(c2nccs2)=N[C@H]1c1cccc(F)c1Br
Reply text: 95 µM

Inquiry: Please list CC50 recorded for the compound COC(=O)C1=C(CN2CCOC[C@H]2C(=O)O)NC(c2nccs2)=N[C@H]1c1ccc(F)c(F)c1Cl
Reply text: > 100 µM

Inquiry: Please list CC50 recorded for the compound COC(=O)C1=C(CN2CCOC[C@H]2C(=O)O)NC(c2nccs2)=N[C@H]1c1ccc(F)cc1Br
Reply text: > 100 µM

Inquiry: Please list CC50 recorded for the compound COC(=O)C1=C(CN2CCOC[C@@]2(C)C(=O)O)NC(c2nccs2)=N[C@H]1c1ccc(F)cc1Cl
Reply text: > 100 µM
